- EXPERIMENT DESCRIPTION: melting temperature; fluorescence melt of hairpins on a sequencing array, two-state fit, raised by 9.35 °C to match UV melts
- RECORDED CONDITIONS: sodium 0.088 M
MEASURED METRIC: Tm (°C)
Please state the figure in °C; there is no need to write the unit.

response.value for GCTGTTGGAAACAGCAGC ((((.((....)).)))) (field: Tm) = 63

response.value for GAGAGACCGAAAGGTCTC (((..(((....)))))) (field: Tm) = 62.5

response.value for GCATTGCGAAAGCCGTGC (((..((....))..))) (field: Tm) = 41.2

----------
- EXPERIMENT DESCRIPTION: melting temperature; fluorescence melt of hairpins on a sequencing array, two-state fit, raised by 9.35 °C to match UV melts
- RECORDED CONDITIONS: sodium 0.088 M
Lab note - cut at 40 °C for Tm: satisfied if strictly below, not satisfied if not.

These recorded examples may help you get a feel for the data.
CGGAGCGGAAACGCGCCG (((.(((....))).))); not satisfied
GAGGAGCGAAAGCTACTC (((.(((....))).))); not satisfied
GGTGGGTCGAAAGACACC (((..(((....)))))); not satisfied
GCTGACGAAAGTCATAGC ((((((....)))..))); not satisfied

Asked: Hello, is Tm of the following sequence strictly smaller than 40 °C? GTCTAACCGAAAGGTGAC (((..(((....))))))
Given back: not satisfied

Asked: Hello, is Tm of the following sequence strictly smaller than 40 °C? GCCGAGGGAAACCCCGAC (.((.((....)).)).)
Given back: satisfied

----------
- EXPERIMENT DESCRIPTION: folding enthalpy; higher = less favourable; fluorescence melt of hairpins on a sequencing array, two-state fit
- RECORDED CONDITIONS: sodium 0.088 M
MEASURED METRIC: folding enthalpy (kcal/mol)
Please state the figure in kcal/mol; there is no need to write the unit.

response.value for GTTGACACGAAAGTGAAC (((..(((....)))))) (field: folding enthalpy) = -14.2

response.value for GGCCACGAAAGTGGCGCC ((((((....)))..))) (field: folding enthalpy) = -7.19

response.value for GAGATGACGAAAGTCCTC (((..(((....)))))) (field: folding enthalpy) = -11.7

response.value for GAAGCGGGAAACCGCCTC ((.((((....)))).)) (field: folding enthalpy) = -10.8

response.value for GTCGATCGAAAGATAGAC (((.(((....))).))) (field: folding enthalpy) = -42.7

response.value for GCGACTTTCGC ((((...)))) (field: folding enthalpy) = -21.8

response.value for GATCACCACGGTGATC ((((((....)))))) (field: folding enthalpy) = -41.4

response.value for GTCGACGAAAGTCTCGAC ((((((....)))..))) (field: folding enthalpy) = -18.3

response.value for GGTGGCGAAAGCCAAACC ((((((....)))..))) (field: folding enthalpy) = -14.2

response.value for GTGGATCGAAAGATTCAC (((.(((....))).))) (field: folding enthalpy) = -38.2

response.value for GATCGGTCAACCGATC ((((((....)))))) (field: folding enthalpy) = -39.2

response.value for GATCGATACATCGATC ((((((....)))))) (field: folding enthalpy) = -46.2

----------
- EXPERIMENT DESCRIPTION: folding enthalpy; higher = less favourable; fluorescence melt of hairpins on a sequencing array, two-state fit
- RECORDED CONDITIONS: sodium 0.088 M
MEASURED METRIC: folding enthalpy (kcal/mol)
Please state the figure in kcal/mol; there is no need to write the unit.

Example entries and their recorded answers appear below.
GTGGGCGAAAGCCAGCAC ((((((....)))..))); -12.8
GTACCCACGAAAGTGTAC (((..(((....)))))); -11.5
GTGGTCGAAAGACCTCAC ((((((....)))..))); -10.7

response.value for GATCCATCAATGGATC ((((((....)))))) (field: folding enthalpy) = -44

response.value for CAGGTGAAAACCTG (((((....))))) (field: folding enthalpy) = -24.5

response.value for GGAGTCGAAAGACTGTCC ((((((....)))..))) (field: folding enthalpy) = -12.1

response.value for GACTACGAAAGTAACGTC ((((((....)))..))) (field: folding enthalpy) = -16

response.value for GGATCTCGAAAGAGTCC (((.(((....)))))) (field: folding enthalpy) = -25.1

response.value for GATCTAGGGTTAGATC ((((((....)))))) (field: folding enthalpy) = -28.4

response.value for GAATTAGAAATAATTC ((((((....)))))) (field: folding enthalpy) = -18.5

response.value for GATGTCGGAAACGACGTC ((.((((....)))).)) (field: folding enthalpy) = -31.3

response.value for GGATCTGCGAAAGCATCC (((..(((....)))))) (field: folding enthalpy) = -14.9

response.value for GTAGAGACGAAAGTCTAC (((..(((....)))))) (field: folding enthalpy) = -11.7

response.value for GATCGCTGATGCGATC ((((((....)))))) (field: folding enthalpy) = -34.8

response.value for GGCATCGGAAACGATGTC (.(((((....))))).) (field: folding enthalpy) = -42.1

----------
- EXPERIMENT DESCRIPTION: melting temperature; fluorescence melt of hairpins on a sequencing array, two-state fit, raised by 9.35 °C to match UV melts
- RECORDED CONDITIONS: sodium 0.088 M
Tm values for the sequences below.
Please state the figure in °C; there is no need to write the unit.

response.value for GCTCCTGCGAAAGCAAGC (((..(((....)))))) (field: Tm) = 26.7

response.value for GTTGACGAAAGTCAGAAC ((((((....)))..))) (field: Tm) = 36.5

response.value for GTGTACGAAAGTATTCAC ((((((....)))..))) (field: Tm) = 28.7

response.value for GTCAACGAAAGTTTAGAC ((((((....)))..))) (field: Tm) = 31.3

response.value for GATCTTGCAAAAGATC ((((((....)))))) (field: Tm) = 53.5

response.value for GTATACGAAAGTAGATAC ((((((....)))..))) (field: Tm) = 24.9

----------
- EXPERIMENT DESCRIPTION: folding enthalpy; higher = less favourable; fluorescence melt of hairpins on a sequencing array, two-state fit
- RECORDED CONDITIONS: sodium 0.088 M
Recorded folding enthalpy determines the group label, using label 0 = under -30 kcal/mol, label 1 = from -30 kcal/mol up to -20 kcal/mol, label 2 = -20 kcal/mol and over

These recorded examples may help you get a feel for the data.
GACACTGCGAAAGCAGTC (((..(((....)))))); label 2
GGAGGGGGAAACCCTTCC (((.(((....))).))); label 1
GATCCTATTTAGGATC ((((((....)))))); label 0

Asked: Sort GATCTAATCCTAGATC ((((((....)))))) into one of the categories.
Given back: label 1

Asked: Sort GTTAGGGCGAAAGCCAAC (((..(((....)))))) into one of the categories.
Given back: label 2

Asked: Sort GCTAATGGAAACATCAGC (((.(((....))).))) into one of the categories.
Given back: label 1

----------
- EXPERIMENT DESCRIPTION: melting temperature; fluorescence melt of hairpins on a sequencing array, two-state fit, raised by 9.35 °C to match UV melts
- RECORDED CONDITIONS: sodium 0.088 M
MEASURED METRIC: Tm
Provide a numeric answer, followed by its unit.

Example entries and their recorded answers appear below.
GATCGATTCTTCGATC ((((((....)))))); 56.9 °C
GATCACACATGTGATC ((((((....)))))); 57.9 °C
GCGCAAGCGAAAGCTCGC (((..(((....)))))); 45.7 °C
GATCTACCGCTAGATC ((((((....)))))); 40 °C
GGTGGTGGAAACACTGCC ((..(((....)))..)); 47.2 °C
GCCCCAGGAAACTGAGGC (((.(((....))).))); 47.5 °C
GGGCGGCGAAAGCCCCCC (((.(((....))).))); 63.9 °C
GCCAGCGGAAACGCCAGC ((..(((....)))..)); 39 °C

response.value for GCGCAGGCGAAAGCCCGC (((..(((....)))))) (field: Tm) = 60.1 °C

response.value for CCCGAGAAATCGGG (((((....))))) (field: Tm) = 54.2 °C

response.value for GTACACGAAAGTGAGTAC ((((((....)))..))) (field: Tm) = 36.5 °C

response.value for GCAATGCGAAAGCTGTGC (((..((....))..))) (field: Tm) = 48.4 °C
